Origin of the recorded values: PubChem BioAssay AID1648

# test_target: Serine/threonine-protein kinase mTOR (Homo sapiens) (UniProt P42345)
# Sequence (P42345 2015-2114): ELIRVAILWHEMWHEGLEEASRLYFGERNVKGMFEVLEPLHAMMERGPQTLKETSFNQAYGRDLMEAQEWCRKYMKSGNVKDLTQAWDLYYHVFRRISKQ
# method_summary: binders of mTOR FRB domain, biophysical, NMR (AID 1648)
# test_conditions: NMR binding to FRB domain, chemical shift
Calls of active or inactive are those of the source. How the calls were made is not given here.
observed_property: Kd

Worked cases, Kd given:
# molecule, test_target, Kd
records = [
    ("O=C(c1nc2ccccc2s1)N1CCSCC1", "Serine/threonine-protein kinase mTOR (Homo sapiens) (UniProt P42345)", "> 4 mM (inactive)"),
    ("Nc1ccc2c(c1)CCC2=O", "Serine/threonine-protein kinase mTOR (Homo sapiens) (UniProt P42345)", "> 4 mM (inactive)"),
]

Shifting focus to the molecule that follows.
Exercise: Which Kd value belongs to COc1c(-c2coc3cc4c(cc3c2=O)CC(O)C(C)(C)O4)ccc2c1C=CC(C)(C)O2 (stereo not drawn) ?
Key: > 4 mM (inactive)

###

So I've got a bunch of compounds here, and I need their Kd values.
# test_target: Serine/threonine-protein kinase mTOR (Homo sapiens)
# method_summary: binders of mTOR FRB domain, biophysical, NMR (AID 1648)
# test_conditions: NMR binding to FRB domain, chemical shift
Active and inactive are the calls of the source. How the calls were made is not given here.

Solved cases (5 shown):
# compound_string, test_target, observed_property, result
records = [
    ("OCc1nccn1Cc1ccccc1", "Serine/threonine-protein kinase mTOR (Homo sapiens)", "Kd", "> 4 mM (inactive)"),
    ("Cn1c(=O)c2c([nH]c(=O)n2C)n(C)c1=O", "Serine/threonine-protein kinase mTOR (Homo sapiens)", "Kd", "> 4 mM (inactive)"),
    ("CCOC(=O)CSc1nnc(C)c(=O)[nH]1", "Serine/threonine-protein kinase mTOR (Homo sapiens)", "Kd", "> 4 mM (inactive)"),
    ("O=C(Nc1ccccc1C(F)(F)F)c1cnccn1", "Serine/threonine-protein kinase mTOR (Homo sapiens)", "Kd", "> 4 mM (inactive)"),
    ("CC1=NCCc2c1[nH]c1cc(O)ccc21", "Serine/threonine-protein kinase mTOR (Homo sapiens)", "Kd", "> 4 mM (inactive)"),
]

List reported Kd for each of these compounds:
1. CCOc1ccc(N2C(=O)CCC2=O)cc1
2. NCCc1nc2ccccc2[nH]1
3. CC(C)(C)C(=O)Nc1nnc(SCC(N)=O)s1
4. Cc1ccccc1NC(=O)CSc1ccnc(=O)[nH]1

Key:
1. > 4 mM (inactive)
2. > 4 mM (inactive)
3. > 4 mM (inactive)
4. > 4 mM (inactive)

###

# test_target: Serine/threonine-protein kinase mTOR (Homo sapiens) (UniProt P42345)
# method_summary: binders of mTOR FRB domain, biophysical, NMR (AID 1648)
# test_conditions: NMR binding to FRB domain, chemical shift
The source made the active and inactive calls. How the calls were made is not given here.
Exercise: state measured Kd for each of the compounds provided.

Check out these entries, answers already filled in.
# compound, Kd
rows = [
    ("C=CCCCCCCCCCCCC(O)CC(O)COC(C)=O (stereo unspecified)", "> 4 mM (inactive)"),
    ("COc1cc2c(cc1OC)[C@@H]1C(=O)c3ccc4c(c3O[C@@H]1CO2)C=CC(C)(C)O4", "> 4 mM (inactive)"),
    ("COc1cc2c(cc1-c1coc3c4c(c(OC)cc3c1=O)OC(C)(C)C=C4)OCO2", "> 4 mM (inactive)"),
    ("CC(C)(C)NC(=O)N1CCC(C(=O)O)CC1", "> 4 mM (inactive)"),
    ("O=c1cc(-c2ccccc2)oc2cc(O)cc(O)c12", "> 4 mM (inactive)"),
]

Working through the 7 compounds below one at a time, give Kd for each.
1. Cc1nnc(NCc2cccnc2)[nH]c1=O
2. COC(=O)c1ccc2nc[nH]c2c1
3. COc1ccc(-c2c(C)n([O-])c(C)c(C)[n+]2=O)cc1
4. CC(=O)Nc1cccc(NC(=O)c2cccnc2)c1
5. COc1cc(C/C=C/c2ccccc2)c(OC)cc1O
6. CCCCCCCCCCCCCc1ccco1
7. Cc1ccc2c(C)c(C(=O)Nc3nnc(C)s3)oc2c1

Key:
1. > 4 mM (inactive)
2. > 4 mM (inactive)
3. > 4 mM (inactive)
4. > 4 mM (inactive)
5. > 4 mM (inactive)
6. > 4 mM (inactive)
7. > 4 mM (inactive)

Hi there! I need Kd for each item below, if you can.
1. CCN1C(=O)c2c(C)nc3ccccc3c2C1=O
2. O=C1NC(=S)N/C1=C\c1ccccc1F

Key:
> 4 mM (inactive)
> 4 mM (inactive)

Please look at the items below and tell me Kd for each one, in order.
1. Cc1cc(C)n(S(=O)(=O)c2cc(C)c(C)cc2C)n1
2. CN(C)N1C(=O)c2ccccc2C1=O
3. NC(=O)CC1Sc2ccccc2NC1=O (stereo unspecified)

Key:
["> 4 mM (inactive)", "> 4 mM (inactive)", "> 4 mM (inactive)"]

Count: 3. Required value per item: Kd.
1. NC(=O)C12CC3CC(C1)C(=O)C(C3)C2
2. COc1cc(C2NC(=S)NC(C)=C2C(C)=O)ccc1O (stereo unspecified)
3. CC(=O)OC1CC[C@@]2(C)C(CCC3C2CC[C@]2(C)C(C4=CC(=O)OC4)C(OC(C)=O)CC32O)C1 (stereo partly specified)

Key:
1: > 4 mM (inactive); 2: > 4 mM (inactive); 3: > 4 mM (inactive)
